# Assayed system: human TREM2 (Homo sapiens, UniProt Q9NZC2)
# Construct: expressed in transfected cells; host or cells: HEK293T-hTREM2 cells (HEK cell line expressing human TREM2 and DAP12)
# Sequence (Q9NZC2 19-230): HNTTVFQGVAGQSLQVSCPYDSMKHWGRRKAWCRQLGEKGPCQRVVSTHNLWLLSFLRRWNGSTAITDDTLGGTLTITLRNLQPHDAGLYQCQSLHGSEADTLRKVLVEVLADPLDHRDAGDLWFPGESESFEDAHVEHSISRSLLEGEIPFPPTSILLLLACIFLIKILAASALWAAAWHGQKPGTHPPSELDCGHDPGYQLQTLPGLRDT
# Sequence (O43914 22-113 partner): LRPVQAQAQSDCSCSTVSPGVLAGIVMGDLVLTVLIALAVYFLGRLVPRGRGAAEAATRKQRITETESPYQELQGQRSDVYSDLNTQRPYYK
# Test protocol: In vitro measurement of TREM2 activity using cellular phosphorylation of spleen tyrosine kinase (Syk), AlphaLisa, HEK293T-hTREM2 cells
# Assay type: cell-based
# Reported conditions: HEK293T cells expressing human TREM2 and DAP12, 45 min at room temperature, Table D-2
A collection of compounds and their measured EC50

{"Compound": "Cc1cc([C@H]2CN(c3cc4c(c(-c5ccc(Cl)cc5F)n3)CN(C)C4=O)CCO2)ccn1 [compound 201]", "Assayed system": "human TREM2 (Homo sapiens, UniProt Q9NZC2)", "EC50": "500 to 3000 nM"}
{"Compound": "C[C@@H]1CN(c2cc3c(c(C4CC(C(F)(F)F)C4)n2)CN(C)C3=O)C[C@H](c2cnn(C3CC3)c2)O1 (stereo partly shown) [compound 220]", "Assayed system": "human TREM2 (Homo sapiens, UniProt Q9NZC2)", "EC50": "50 to 500 nM"}
{"Compound": "Cc1cc([C@H]2CN(c3cc4c(c(-c5ccc(Cl)cc5F)n3)C(C)N(C)C4=O)CCO2)ccn1 (stereo partly shown) [compound 213]", "Assayed system": "human TREM2 (Homo sapiens, UniProt Q9NZC2)", "EC50": "3000 to 100000 nM"}

Now turn to the next compound.
Report EC50 for C[C@H]1CN(c2cc3c(c(-c4ccc(Cl)cc4F)n2)CN(C)C3=O)CCO1 [compound 206] please.
500 to 3000 nM
